Catalogue of inhibition values
target: Vascular endothelial growth factor receptor 2 (Homo sapiens, UniProt P35968); experiment: Inhibition of human VEGFR2 at 1 uM by enzymatic radiometric assay
Sequence (P35968 whole entry): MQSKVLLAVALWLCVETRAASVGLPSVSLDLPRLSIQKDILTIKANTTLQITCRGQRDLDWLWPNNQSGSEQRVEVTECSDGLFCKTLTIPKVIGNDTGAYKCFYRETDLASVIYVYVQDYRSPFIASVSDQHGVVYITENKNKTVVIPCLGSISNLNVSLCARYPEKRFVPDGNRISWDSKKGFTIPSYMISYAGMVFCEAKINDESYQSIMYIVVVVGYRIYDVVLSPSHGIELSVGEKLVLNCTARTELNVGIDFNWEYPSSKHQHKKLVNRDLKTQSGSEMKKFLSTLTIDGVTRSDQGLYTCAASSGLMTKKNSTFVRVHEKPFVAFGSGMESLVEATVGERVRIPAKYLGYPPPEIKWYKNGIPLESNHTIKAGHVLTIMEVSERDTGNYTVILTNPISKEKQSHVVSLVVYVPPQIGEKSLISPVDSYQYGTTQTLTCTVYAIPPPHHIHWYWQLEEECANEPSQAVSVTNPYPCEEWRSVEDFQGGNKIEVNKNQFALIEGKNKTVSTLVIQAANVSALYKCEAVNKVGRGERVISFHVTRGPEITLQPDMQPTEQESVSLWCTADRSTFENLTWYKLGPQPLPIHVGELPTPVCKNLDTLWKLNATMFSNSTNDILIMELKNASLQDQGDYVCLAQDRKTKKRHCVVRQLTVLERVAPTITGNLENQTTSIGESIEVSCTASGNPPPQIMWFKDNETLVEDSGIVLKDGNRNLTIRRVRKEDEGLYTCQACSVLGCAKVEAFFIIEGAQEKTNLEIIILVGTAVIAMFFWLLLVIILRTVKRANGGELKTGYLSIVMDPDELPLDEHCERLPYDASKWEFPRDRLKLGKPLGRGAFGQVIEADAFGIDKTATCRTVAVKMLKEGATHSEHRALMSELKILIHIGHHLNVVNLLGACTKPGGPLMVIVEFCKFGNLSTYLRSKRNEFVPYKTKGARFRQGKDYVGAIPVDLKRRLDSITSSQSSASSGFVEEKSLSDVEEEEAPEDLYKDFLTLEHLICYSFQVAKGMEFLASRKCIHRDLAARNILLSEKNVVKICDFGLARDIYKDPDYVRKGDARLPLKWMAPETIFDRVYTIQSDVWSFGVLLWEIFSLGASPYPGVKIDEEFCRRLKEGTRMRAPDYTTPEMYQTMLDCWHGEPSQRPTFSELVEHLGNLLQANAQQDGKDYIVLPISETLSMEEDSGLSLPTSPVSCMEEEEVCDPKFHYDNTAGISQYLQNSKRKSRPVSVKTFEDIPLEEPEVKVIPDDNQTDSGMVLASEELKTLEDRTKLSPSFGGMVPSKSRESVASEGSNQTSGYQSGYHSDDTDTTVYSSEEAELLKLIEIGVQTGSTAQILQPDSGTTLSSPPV

Consider the worked cases shown below.
State inhibition (Vascular endothelial growth factor receptor 2 (Homo sapiens, UniProt P35968)) of CN(C)C(=O)c1cc2cnc(Nc3ccc(NC(=O)C4(C(=O)Nc5ccc(C#N)cc5)CC4)cc3)nc2n1C1CCCC1 .
21%

Provide measured inhibition on Vascular endothelial growth factor receptor 2 (Homo sapiens, UniProt P35968) for CN(C)C(=O)c1cc2cnc(Nc3ccc(NC(=O)C4(C(=O)Nc5cccc(O)c5)CC4)cc3)nc2n1C1CCCC1 please.
24%

Give inhibition for CN(C)C(=O)c1cc2cnc(Nc3ccc(NC(=O)C4(C(=O)Nc5ccc(O)cc5)CC4)cc3)nc2n1C1CCCC1 tested on Vascular endothelial growth factor receptor 2 (Homo sapiens, UniProt P35968).
36%

State inhibition (Vascular endothelial growth factor receptor 2 (Homo sapiens, UniProt P35968)) of Cc1ccc(NC(=O)C2(C(=O)Nc3ccc(Nc4ncc5cc(C(=O)N(C)C)n(C6CCCC6)c5n4)cc3)CC2)cc1 .
9%

Continuing:
Give inhibition for this entry on Vascular endothelial growth factor receptor 2 (Homo sapiens, UniProt P35968): CN(C)C(=O)c1cc2cnc(Nc3ccc(NC(=O)C4(C(=O)Nc5cccc(Cl)c5)CC4)cc3)nc2n1C1CCCC1
15%

State inhibition (Vascular endothelial growth factor receptor 2 (Homo sapiens, UniProt P35968)) of CN(C)C(=O)c1cc2cnc(Nc3ccc(N4CCN(C(=O)C5(C(=O)Nc6ccc(F)cc6)CC5)CC4)cn3)nc2n1C1CCCC1 .
-8%

* * *

biological target: Vascular endothelial growth factor receptor 2 (Homo sapiens, UniProt P35968)
pIC50: −log10 of the molar value.
readout name: pIC50

Specify measured pIC50 for CN(C)C(=O)c1cc2cnc(Nc3ccc(NC(=O)C4(C(=O)Nc5ccc(F)cc5)CC4)cc3)nc2n1C1CCCC1 .
< 5.00

* * *

Listing: inhibition of selected compounds
molecular target: CDK4/Cyclin D3 (Homo sapiens) (UniProt P11802+P30281); test: Inhibition of human CDK4/CyclinD3 at 1 uM by enzymatic radiometric assay; assay type: protein-complex assay
Value expressed in %; do not type the unit.

Return value of inhibition for input CN(C)C(=O)c1cc2cnc(Nc3ccc(NC(=O)C4(C(=O)Nc5ccc(F)cc5)CC4)cc3)nc2n1C1CCCC1 , no commentary.
102

// fetch inhibition given entry Cc1cccc(NC(=O)C2(C(=O)Nc3ccc(Nc4ncc5cc(C(=O)N(C)C)n(C6CCCC6)c5n4)cc3)CC2)c1
66

Complete the entry with inhibition for CN(C)C(=O)c1cc2cnc(Nc3ccc(NC(=O)C4(C(=O)Nc5ccc(Br)cc5)CC4)cc3)nc2n1C1CCCC1
48

For the compound CN(C)C(=O)c1cc2cnc(Nc3ccc(NC(=O)C4(C(=O)Nc5ccc(C(F)(F)F)cc5)CC4)cc3)nc2n1C1CCCC1 , give its measured inhibition value.
32

For Cc1ccc(NC(=O)C2(C(=O)Nc3ccc(Nc4ncc5cc(C(=O)N(C)C)n(C6CCCC6)c5n4)cc3)CC2)cc1 , write its inhibition.
62

New cases:
Output measured inhibition for this item: CN(C)C(=O)c1cc2cnc(Nc3ccc(NC(=O)C4(C(=O)Nc5cccc(C(F)(F)F)c5)CC4)cc3)nc2n1C1CCCC1
26

Name the recorded inhibition of the compound listed here: CN(C)C(=O)c1cc2cnc(Nc3ccc(NC(=O)C4(C(=O)Nc5ccc(O)cc5)CC4)cc3)nc2n1C1CCCC1
95

Each recorded value in this set is attributed to ChEMBL document CHEMBL4052710.
